The measured values listed here are drawn from patent US20040110802A1.

- Test system: SAUR 9218
- test summary: MIC Test Method, standard agar dilution
- Type: cell-based
- protocol conditions: agar dilution, Mueller Hinton agar, incubated overnight at 35° C.; lowest concentration that inhibits visible growth; read-out: SAUR 9218 MIC
Quick reference: MIC of the listed items.
Form entry: value (µg/mL) — number only.

Example results:
query_smiles=N#Cc1ccc(NC(=O)c2cc(-c3ccccc3F)on2)c(C(=O)O)c1 value_reported=0.125
query_smiles=CNC(=O)Nc1ccc2cc(C(=O)Nc3ccc(C#N)cc3C(=O)O)n(C)c2c1 value_reported=2
query_smiles=Cn1c(C(=O)Nc2ccc(C#N)cc2C(=O)O)cc2ccc(OCC3CCC3)cc21 value_reported=0.125
query_smiles=Cc1ccsc1-c1cc(C(=O)Nc2ccc(C#N)cc2C(=O)O)no1 value_reported=0.125

From here, focus on the item given below.
// fetch MIC given entry `Cn1c(C(=O)Nc2ccc(I)cc2C(=O)O)cc2cccc(S(=O)(=O)c3ccccc3)c21`
0.125
